These entries and their values trace back to the supplement of paper PMC10567573.

Listing: protein stability index of selected sequences
# Test: protein stability index of a GFP-peptide fusion (GPS, HEK-293T) (PSI 1-6); higher = more stable;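 further: 24-mer peptide tiles fused after GFP, lentivirally expressed, FACS-sorted into six equal bins by GFP/DsRed ratio, decoded by Illumina sequencing, PSI is the read-weighted mean bin number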
# Condition Parameters: treatment: MLN4924 1 uM, 8 h; c terminus: a fixed tail appended

QPKKNNVMARTRLVVPNKGYSSLD [FAM219A]    4.07
QLTEKLARVNENLARKIASRNEFD [SSNA1]    3.24
WIGKQLPTPVGAVQQDPALSSNRE [CSNK1G3]    4.48
QKEVLPSMRKIVATWMLEVCEEQK [CCND1]    3
RQVVDILWSDPMAQEGCKANTIRG [PPEF2]    3.55
ITERDKRPEGYNLKDEEGKLKDLS [PPP2R2C]    5.54

The measured protein stability index associated with DYHLLHPVENIPEIILYWKHSTIF [SLC25A25] reads 2.76

====

# Test: protein stability index of a GFP-peptide fusion (GPS, HEK-293T) (PSI 1-6); higher = more stable
# Condition Parameters: treatment: DMSO; c terminus: a fixed tail appended
Listing: protein stability index of selected sequences
// no unit string in output, number only

Sample records with protein stability index:
AVSDGRHMFVWGGYKSNQVRGLYD [KLHDC2]    2.28
LEKKNEALKERADSLAKEIQYLKD [ATF4]    4.53
PHTVLDRQLLCLIDYYESKIRKIH [CEP70]    2.46
TPQHHEKQYAMQRPNDDSLAFLDK [IQUB]    4.53
CVPPSEFSEPSFITESYQTLHPIS [ETS1]    2.98

The measured protein stability index associated with EPQWFYEETESSDDVEVLTLKKFK [C8orf76] reads 4.66

The measured protein stability index associated with EWNQKRARKAMRNGISPIIIDNTN [N4BP2L1] reads 2.65

The measured protein stability index associated with SLTNDWEDHLAVKHFSVEGQLEFR [HSP90AB1] reads 3.49

====

# Test: protein stability index of a GFP-peptide fusion (GPS, HEK-293T) (PSI 1-6); higher = more stable
# Condition Parameters: treatment: MLN4924 1 uM, 8 h; c terminus: a fixed tail appended
Listing: protein stability index of selected sequences
// no unit string in output, number only

CQDCGRAFNQNSSLGRHKRTHTGE [ZNF8]    3.42
TSDSEGAHVNTLHSGTKRDPKEDV [PHTF1]    5.54
DFPAHRIVLAACSDYFCAMFTSEL [KLHL12]    3.27
QGGSLPSEEKGHPQEESEESNVSM [CHGB]    5.53
LNTLTLNVKSEKVYTRHGVPISVT [FLOT1]    2.61
EGTFRPERLLAVAERYGLSGSDVL [RAD51]    3.45
ISVEGINHDIRTANDGDYWRLLNP [CPXM2]    2.7
LGRMFGSGREHNFTRPNEKGEYEV [BTBD10]    3.98
ACLVSCFQQLMVETCSCGYYLHPL [SCNN1D]    3.21
LLEKNASVNEVDFEGRTPMHVACQ [RIPK4]    3.94

The measured protein stability index associated with MAEAAALVWIRGPGFGCKAVRCAS [SDE2] reads 2.35

The measured protein stability index associated with LLGWGYYLIMLPFRFTYYTILDIF [FAF2] reads 4.7

The measured protein stability index associated with VNQYVIRPGPSASAASSAAAGEPL [RNF208] reads 3.96

The measured protein stability index associated with VERPHSGLPGKVFACLSVLFVTVT [KCNG1] reads 2.52

The measured protein stability index associated with LLLCLKVDNHFNLLTTSPVFPHYI [TRIM43] reads 3.08

====

# Test: protein stability index of a GFP-peptide fusion (GPS, HEK-293T) (PSI 1-6); higher = more stable
# Condition Parameters: treatment: DMSO; c terminus: a fixed tail appended
Property Name: protein stability index
// no unit string in output, number only

Sample records with protein stability index:
KGKYNISSEDYRQLELVILQSEPH [KCNK9]    2.87
TILPQEIQSRVQELHPESGEEAVT [ZNF263]    5.11
VEQPKGTEVVRDAVRKLKFARHIK [GULP1]    3.7
LSIINFFERLCLTWMFFFMMCVAE [PHTF1]    3.41
KNDGRIDAQEIMQSLRDLGVKISE [SLC25A25]    3.19

The measured protein stability index associated with VLVLTKPLGTQVAVNAHQWLDNPE [SEPHS2] reads 2.4

The measured protein stability index associated with SSRVIAASYDKTVRAWDLETGKLL [WDR88] reads 2.76

====

# Test: protein stability index of a GFP-peptide fusion (GPS, HEK-293T) (PSI 1-6); higher = more stable
# Condition Parameters: treatment: DMSO; c terminus: a fixed tail appended
Listing: protein stability index of selected sequences
// no unit string in output, number only

Sample records with protein stability index:
LPVLRGFPAKYIYDPWNAPEGIQK [CRY1]    2.39
AEQRGDNALKDARAKLDELEGALH [KRT71]    5.16
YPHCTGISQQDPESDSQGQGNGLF [ZC2HC1C]    3.82
KGGLVWDENSSDGRYVKENCKPLK [CLK3]    4.53
LSWYRGRRPRTAFTQNQIEVLENV [HESX1]    3.03

The measured protein stability index associated with SSDGSNFGWETKIKAWMDRYEEAN [KMT2E] reads 3.79

The measured protein stability index associated with RLAQVKRKILVLDLDETLIHSHHD [CTDNEP1] reads 2.41

====

Listing: protein stability index of selected sequences
# Test: protein stability index of a GFP-peptide fusion (GPS, HEK-293T) (PSI 1-6); higher = more stable
# Condition Parameters: treatment: DMSO; c terminus: a fixed tail appended
// no unit string in output, number only

KLEISTKEVPVVHTETKTITYESS [EPB41L3]    4.83
GDTVVQGDLQETTVVTGLGPDTQD [PBXIP1]    5.56
CPPLPAGVSFHIDSAELEPGSQTA [FBXO34]    5.03
AVADSIPQVLADLGSFESPANSET [PCDHGA10]    5.07
AQSLPGPCAAAREGRLERRECGLA [IRX6]    4.42
VEQMTKEERQAAQNECQVLKLLNH [NEK8]    4.59

The measured protein stability index associated with LAQIAEVLEMFDLRMMVENIMNKE [RHOBTB1] reads 2.54

The measured protein stability index associated with NARGMGIRSPRPASVATWAIFVHR [CTBP1-DT] reads 2.16

The measured protein stability index associated with KRRPKAQPTTLVLPPQYVDDVISR [MED27] reads 4.03

The measured protein stability index associated with SSSNEHAAPAAKTRKQAAKKVAPL [ELOA2] reads 4.85

The measured protein stability index associated with YAKVKEFIVDILQFLDIGPDVTRV [MATN2] reads 3.84

The measured protein stability index associated with DYLIQATNETNVNIPQMADTLFER [SNAP91] reads 3.64

The measured protein stability index associated with QWWASVGMDDFLGVYSMPAGTKVF [TLE6] reads 2.23

====

# Test: protein stability index of a GFP-peptide fusion (GPS, HEK-293T) (PSI 1-6); higher = more stable
# Condition Parameters: treatment: DMSO; c terminus: a fixed tail appended
Listing: protein stability index of selected sequences

EELDKYWSQQIEESTTVVTTQSAE [KRT18]    5.16
KSVQHVVLQALFYLLDRAVDSFET [PTPN9]    3.21
ACAQLATGAACRLVEAVLSGEVLN [HDAC6]    2.44
TDGLQEVPLCSCRMETPKSREITT [EHMT1]    3.21

The measured protein stability index associated with TKLQAQHVSYRELGACVRTAVAQG [SLC25A39] reads 3.05

The measured protein stability index associated with RRRRMETIVFLDKEVFASRISNPS [PCMTD2] reads 2.57

The measured protein stability index associated with PECGLAKKPPEESTCFERPCFKWY [ADAMTSL2] reads 3.4

The measured protein stability index associated with SLRSYLKRRGPQRSVDVVVSSVFL [PHTF1] reads 2.48

The measured protein stability index associated with NLESKSTIGVEFATRSIQVDGKTI [RAB11A] reads 4.33

====

# Test: protein stability index of a GFP-peptide fusion (GPS, HEK-293T) (PSI 1-6); higher = more stable
# Condition Parameters: treatment: MLN4924 1 uM, 8 h; c terminus: native
Property Name: protein stability index
// no unit string in output, number only

Sample records with protein stability index:
LADKELVHMISWAKKIPGMRGNA [ESR2]    2.56
YAKLAAVAVFFIMLIVYVRFWWL [SEC22B]    2.63
VDISVPPTTDGQKPNKLQCCQNL [RAB11B]    4.93

The measured protein stability index associated with TSGNPNGRYGSGYLLASTPESEL [SLC6A17] reads 4.58

The measured protein stability index associated with SLLQPVTPLGTSRWRKISAALPY [NCF4] reads 2.24

The measured protein stability index associated with YSLRNKEFKSALCKIVRRTISLL [OR10K2] reads 2.93

The measured protein stability index associated with LKFDNSYSLWRSKSVYYRVYYTR [ACBD3] reads 2.29

The measured protein stability index associated with RHCPLPQATFWGLVTPRSWSCHT [SOAT2] reads 2.44

The measured protein stability index associated with SVTRSCLLEEEEESGEEAAEAME [POP5] reads 5.49

The measured protein stability index associated with LIWSYPAGSLTFPVRPFFYTGHR [TRIM43] reads 2.15

The measured protein stability index associated with PDTRHPCSLGSSLVADYSDSESE [YJU2B] reads 5.29

The measured protein stability index associated with AIDRNYVPGKSLAVSCPGWSAVA [SNX12] reads 1.97
